The measurements presented in this section are drawn from ChEMBL document CHEMBL6078688.

assay: Cmax in Sprague-Dawley rat at 50 mg/kg,po administration measured upto 24 hrs by LC-MS/MS analysis; assay type: ADME, organism-based; conditions: in vivo
OBSERVABLE: Cmax

- CPD SMILES: "COc1ccc(-c2csc(NC(=O)CCN3CCN(Cc4cccc([N+](=O)[O-])c4)CC3)n2)cc1OC"
  OBSERVABLE: "Cmax"
  RECORDED VALUE: "3.99 ng/mL"

###

system: J774.A1; assay: Cytotoxicity against mouse J774.A1 cells at 10 uM by MTT assay; format: toxicity, cell-based; conditions: j774.a1, 10 µM
OBSERVABLE: Activity

- COMPOUND: "CC(c1ccccc1)C(O)CN1CCN(CC(O)COc2ccc(Br)cc2)CC1 (centres undefined)"
  ASSAYED SYSTEM: "J774.A1"
  RECORDED VALUE: "Non-toxic"
- COMPOUND: "CC(c1cccc(F)c1)C(O)CN1CCN(CC(O)COc2ccc(Cl)cc2)CC1 (centres undefined)"
  ASSAYED SYSTEM: "J774.A1"
  RECORDED VALUE: "Non-toxic"
- COMPOUND: "OC(COc1ccc(F)cc1)CN1CCN(Cc2cc3ccccc3[nH]2)CC1 (centres undefined)"
  ASSAYED SYSTEM: "J774.A1"
  RECORDED VALUE: "Non-toxic"
- COMPOUND: "CC(C)(C)c1ccc(OCC(O)CN2CCN(Cc3cc4ccccc4[nH]3)CC2)cc1 (centres undefined)"
  ASSAYED SYSTEM: "J774.A1"
  RECORDED VALUE: "Toxic"
